experiment: Hemolytic assay; assay type: cell-based, human; details: human, human red blood cells, 2% (v/v); Table 4; quantitated based on weight; read-out: HL50, peptide concentration for 50% hemolysis
Peptide text beside a SMILES is read from it.
Overview of reported HC50 at 1 h across a group of compounds:
Write the answer as a number in µM, unit excluded.

compound	unit abbreviation	HC50 at 1 h
CC(C)C[C@H](NC(=O)[C@H](CC(C)C)NC(=O)[C@H](CCCCN)NC(=O)CNC(=O)[C@H](CC(C)C)NC(=O)[C@H](CC(C)C)NC(=O)[C@H](CO)NC(=O)[C@H](CC(C)C)NC(=O)[C@H](CC(C)C)NC(=O)[C@H](CO)NC(=O)[C@H](CC(C)C)NC(=O)[C@H](CC(C)C)NC(=O)CN)C(N)=O [DFTamP1, GLLSLLSLLGKLL] (H-GLLSLLSLLGKLL-NH2; N-terminus assumed)	µM	10

Let us move to another entry and its HC50 at 1 h.
Input: Find the recorded HC50 at 1 h belonging to CC(C)C[C@H](NC(=O)[C@H](CC(C)C)NC(=O)[C@H](CCCCN)NC(=O)[C@H](CC(C)C)NC(=O)CNC(=O)[C@H](CC(C)C)NC(=O)[C@H](CO)NC(=O)[C@H](CC(C)C)NC(=O)[C@H](CC(C)C)NC(=O)[C@H](CO)NC(=O)[C@H](CC(C)C)NC(=O)[C@H](CC(C)C)NC(=O)CN)C(N)=O [DFT531, GLLSLLSLGLKLL] (H-GLLSLLSLGLKLL-NH2; N-terminus and C-terminus assumed) and report it.
Output: 7

###

experiment: Hemolytic assay; type: cell-based, human; conditions: human, human red blood cells, 2% (v/v)
Peptide text beside a SMILES is read from it.
recorded endpoint: HC50 at 1 h

Completed entries (count: 2):
molecule	HC50 at 1 h
CC(C)C[C@H](NC(=O)[C@H](CC(C)C)NC(=O)[C@H](CCCCN)NC(=O)[C@H](CC(C)C)NC(=O)CNC(=O)[C@H](CC(C)C)NC(=O)[C@H](CO)NC(=O)[C@H](CC(C)C)NC(=O)[C@H](CC(C)C)NC(=O)[C@H](CC(C)C)NC(=O)[C@H](CO)NC(=O)[C@H](CC(C)C)NC(=O)CN)C(N)=O [DFT503, GLSLLLSLGLKLL] (H-GLSLLLSLGLKLL-NH2; N-terminus and C-terminus assumed)	> 300 µM
CC(C)C[C@H](NC(=O)[C@H](CC(C)C)NC(=O)CNC(=O)[C@H](CC(C)C)NC(=O)[C@H](CC(C)C)NC(=O)[C@H](CO)NC(=O)[C@H](CC(C)C)NC(=O)[C@H](CC(C)C)NC(=O)[C@H](CO)NC(=O)[C@H](CC(C)C)NC(=O)[C@H](CC(C)C)NC(=O)[C@H](CCCCN)NC(=O)CN)C(N)=O [DFT527, GKLLSLLSLLGLL] (H-GKLLSLLSLLGLL-NH2; N-terminus and C-terminus assumed)	20 µM

Input: Find the recorded HC50 at 1 h belonging to CC(C)C[C@H](NC(=O)[C@H](CC(C)C)NC(=O)[C@H](CCCCN)NC(=O)[C@H](CC(C)C)NC(=O)CNC(=O)[C@H](CC(C)C)NC(=O)[C@H](CCCCN)NC(=O)[C@H](CC(C)C)NC(=O)[C@H](CC(C)C)NC(=O)[C@H](CC(C)C)NC(=O)[C@H](CCCCN)NC(=O)[C@H](CC(C)C)NC(=O)[C@@H](N)CCCCN)C(N)=O [DFT565, KLKLLLKLGLKLL] (H-KLKLLLKLGLKLL-NH2; N-terminus and C-terminus assumed) and report it.
Output: 50 µM

###

test system: human red blood cells (hRBCs); experiment: Hemolytic assay; format: cell-based
Square brackets hold non-standard residues; d marks the D form. Peptide text beside a SMILES is read from it. Orn = NCCC[C@H](N)C(=O)O
recorded endpoint: HL50 (µM)
Write the answer as a number in µM, unit excluded.

Completed entries (count: 4):
compound	measured on	HL50 [µM]
CC(C)C[C@H](NC(=O)[C@H](CC(C)C)NC(=O)[C@H](CCCCN)NC(=O)CNC(=O)[C@H](CC(C)C)NC(=O)[C@H](C)NC(=O)[C@H](CCCCN)NC(=O)[C@H](CC(C)C)NC(=O)[C@H](C)NC(=O)[C@H](CO)NC(=O)[C@H](CC(C)C)NC(=O)[C@H](CC(C)C)NC(=O)CN)C(N)=O [DFT514, GLLSALKALGKLL] (H-GLLSALKALGKLL-NH2; N-terminus assumed)	human red blood cells (hRBCs)	36
CC(C)C[C@H](NC(=O)[C@H](CC(C)C)NC(=O)[C@H](CCCCN)NC(=O)CNC(=O)[C@H](C)NC(=O)[C@H](C)NC(=O)[C@H](CCCCN)NC(=O)[C@H](C)NC(=O)[C@H](C)NC(=O)[C@H](CO)NC(=O)[C@H](CC(C)C)NC(=O)[C@H](CC(C)C)NC(=O)CN)C(N)=O [DFT522, GLLSAAKAAGKLL] (H-GLLSAAKAAGKLL-NH2; N-terminus assumed)	human red blood cells (hRBCs)	50
CC(C)C[C@H](NC(=O)[C@H](CC(C)C)NC(=O)[C@H](CCCCN)NC(=O)CNC(=O)[C@H](CC(C)C)NC(=O)[C@H](C)NC(=O)[C@H](CCCN)NC(=O)[C@H](CC(C)C)NC(=O)[C@H](C)NC(=O)[C@H](CO)NC(=O)[C@H](CC(C)C)NC(=O)[C@H](CC(C)C)NC(=O)CN)C(N)=O [DFT515, GLLSALOALGKLL] (H-GLLSAL[Orn]ALGKLL-NH2; N-terminus assumed)	human red blood cells (hRBCs)	36
CC(C)C[C@H](NC(=O)[C@H](Cc1c[nH]c2ccccc12)NC(=O)[C@H](Cc1c[nH]c2ccccc12)NC(=O)[C@@H](N)Cc1c[nH]c2ccccc12)C(=O)N[C@@H](CCCNC(=N)N)C(=O)N[C@@H](CCCNC(=N)N)C(=O)N[C@@H](CCCNC(=N)N)C(=O)N[C@@H](Cc1c[nH]c2ccccc12)C(N)=O [Horine, WWWLRRRW] (H-WWWLRRRW-NH2; N-terminus and C-terminus assumed)	human red blood cells (hRBCs)	150

Let us move to another entry and its HL50.
Input: Find the recorded HL50 belonging to CC[C@H](C)[C@H](NC(=O)[C@H](CCCNC(=N)N)NC(=O)[C@H](CCCNC(=N)N)NC(=O)[C@H](CC(C)C)NC(=O)[C@H](Cc1c[nH]c2ccccc12)NC(=O)[C@H](Cc1c[nH]c2ccccc12)NC(=O)[C@@H](N)Cc1c[nH]c2ccccc12)C(=O)N[C@@H](Cc1c[nH]c2ccccc12)C(N)=O [WW299, WWWLRRIW] (H-WWWLRRIW-NH2; N-terminus and C-terminus assumed) and report it.
Output: 35

###

tested on: S. aureus USA300; experiment: microbe, parasite or virus in culture; assay type: cell-based, Staphylococcus aureus; conditions: USA300
Peptide text beside a SMILES is read from it.
recorded endpoint: MIC SA (S. aureus USA300) (µM)
Write the answer as a number in µM, unit excluded.

Input: Find the recorded MIC SA (S. aureus USA300) belonging to CC(C)C[C@H](NC(=O)[C@H](CC(C)C)NC(=O)[C@H](CCCCN)NC(=O)[C@H](CC(C)C)NC(=O)[C@H](CCCCN)NC(=O)[C@H](CC(C)C)NC(=O)[C@H](CO)NC(=O)[C@H](CC(C)C)NC(=O)[C@H](CC(C)C)NC(=O)[C@H](CC(C)C)NC(=O)[C@H](CO)NC(=O)[C@H](CC(C)C)NC(=O)CN)C(N)=O [DFT563, GLSLLLSLKLKLL] (H-GLSLLLSLKLKLL-NH2; N-terminus and C-terminus assumed) and report it.
Output: 6.2

###

Overview of reported CC50 across a group of molecules:
assay: Toxicity to cells; format: cell-based; settings: splenocytes (mouse spleen), Spleenocytes, read-out: LC50 (the source's name)
Peptide text beside a SMILES is read from it.

Input: Find the recorded CC50 belonging to CC(C)[C@H](NC(=O)[C@H](Cc1c[nH]c2ccccc12)NC(=O)[C@H](Cc1c[nH]c2ccccc12)NC(=O)[C@H](Cc1c[nH]c2ccccc12)NC(=O)[C@H](Cc1c[nH]c2ccccc12)NC(=O)[C@H](CCCNC(=N)N)NC(=O)[C@H](CCCNC(=N)N)NC(=O)[C@@H](N)CCCNC(=N)N)C(N)=O [Verine, RRRWWWWV] (H-RRRWWWWV-NH2; N-terminus and C-terminus assumed) and report it.
Output: > 12.5 µM

Input: Please answer likewise for CC(C)C[C@H](NC(=O)[C@H](Cc1c[nH]c2ccccc12)NC(=O)[C@H](Cc1c[nH]c2ccccc12)NC(=O)[C@@H](N)Cc1c[nH]c2ccccc12)C(=O)N[C@@H](CCCNC(=N)N)C(=O)N[C@@H](CCCNC(=N)N)C(=O)N[C@@H](CCCNC(=N)N)C(=O)N[C@@H](Cc1c[nH]c2ccccc12)C(N)=O [Horine, WWWLRRRW] (H-WWWLRRRW-NH2; N-terminus and C-terminus assumed)
Output: > 50 µM

Data provenance is patent US12173088B2.
